- measurement_protocol: Octanol-water partition coefficient, log P of the compound
- Assay type: physicochemical
Please respond with reported logP for every item in the list.
Field format: numeric only.

Data request, read-out logP, for Cc1cccc(NC(=O)Nc2ccc(Cc3ccc(NC(=O)Nc4cccc(C)c4)cc3)cc2)c1
4.8

Data request, read-out logP, for N#Cc1ccc(NC(=O)Nc2ccc(Cc3ccc(NC(=O)Nc4ccc(C#N)cc4)cc3)cc2)cc1
2.8

Data request, read-out logP, for COc1ccc(NC(=O)Nc2ccc(Cc3ccc(NC(=O)Nc4ccc(OC)cc4)cc3)cc2)cc1
4.4

Data request, read-out logP, for O=C(Nc1ccc(Oc2ncnc3cc(Cl)ccc23)nc1)Nc1cccc(C(F)(F)F)c1
4.5

----------
- measurement_target: SUMO-activating enzyme (Homo sapiens, UniProt Q9UBT2)
- Sequence (Q9UBE0 whole entry): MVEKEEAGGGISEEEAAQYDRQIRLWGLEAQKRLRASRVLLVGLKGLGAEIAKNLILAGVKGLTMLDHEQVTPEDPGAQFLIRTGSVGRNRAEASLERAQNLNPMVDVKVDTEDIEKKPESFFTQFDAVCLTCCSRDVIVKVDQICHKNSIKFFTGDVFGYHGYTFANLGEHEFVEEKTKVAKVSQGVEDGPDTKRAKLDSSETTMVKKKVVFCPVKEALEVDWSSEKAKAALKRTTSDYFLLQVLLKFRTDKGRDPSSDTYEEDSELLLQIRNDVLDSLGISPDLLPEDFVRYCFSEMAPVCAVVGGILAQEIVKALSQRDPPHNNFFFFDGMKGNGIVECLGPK
- Sequence (Q9UBT2 whole entry): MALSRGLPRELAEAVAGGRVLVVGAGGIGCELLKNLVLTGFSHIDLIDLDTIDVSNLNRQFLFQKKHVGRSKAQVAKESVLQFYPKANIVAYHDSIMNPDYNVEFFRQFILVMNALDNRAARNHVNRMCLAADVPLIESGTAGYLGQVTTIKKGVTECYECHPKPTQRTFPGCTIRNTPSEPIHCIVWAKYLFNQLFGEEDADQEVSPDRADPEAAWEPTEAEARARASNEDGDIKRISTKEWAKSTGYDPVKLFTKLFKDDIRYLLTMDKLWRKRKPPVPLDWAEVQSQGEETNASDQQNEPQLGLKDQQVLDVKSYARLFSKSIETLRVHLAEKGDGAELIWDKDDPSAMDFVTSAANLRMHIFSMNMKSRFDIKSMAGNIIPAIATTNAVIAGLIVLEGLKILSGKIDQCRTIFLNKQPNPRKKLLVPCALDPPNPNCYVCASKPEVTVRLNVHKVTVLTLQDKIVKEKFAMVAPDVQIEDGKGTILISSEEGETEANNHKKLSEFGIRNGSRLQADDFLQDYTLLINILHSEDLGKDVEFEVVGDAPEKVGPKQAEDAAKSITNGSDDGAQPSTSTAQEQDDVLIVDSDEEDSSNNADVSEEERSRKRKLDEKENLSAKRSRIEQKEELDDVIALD
- measurement_protocol: Inhibition of SUMO E1 (unknown origin)-mediated RanGAP1 sumoylation by immunoblotting analysis
- Assay type: protein-complex assay
Please respond with reported pIC50 for every item in the list.
// returns pIC50 (minus log10 of molar concentration), number only

Report pIC50 for O=C(Nc1ccc(Oc2ncnc3cc(Cl)ccc23)nc1)Nc1cccc(C(F)(F)F)c1 tested on SUMO-activating enzyme (Homo sapiens, UniProt Q9UBT2).
4.45

Report pIC50 for O=C(Nc1ccccc1)Nc1ccc(Oc2ncnc3cc(Cl)ccc23)nc1 tested on SUMO-activating enzyme (Homo sapiens, UniProt Q9UBT2).
4.24

Report pIC50 for O=C(Nc1ccc(F)cc1)Nc1ccc(Oc2ncnc3cc(Cl)ccc23)nc1 tested on SUMO-activating enzyme (Homo sapiens, UniProt Q9UBT2).
4.14

Report pIC50 for O=C(Nc1ccc(OCc2ccccc2)cc1)Nc1ccc(Oc2ncnc3cc(Cl)ccc23)nc1 tested on SUMO-activating enzyme (Homo sapiens, UniProt Q9UBT2).
4.45

Report pIC50 for COc1ccc(NC(=O)Nc2ccc(Oc3ncnc4cc(Cl)ccc34)nc2)cc1OC1CCCC1 tested on SUMO-activating enzyme (Homo sapiens, UniProt Q9UBT2).
4.87

----------
- measurement_protocol: Permeability across human Caco2 cells
- Type: ADME, cell-based
- study_conditions: Caco-2, read-out: permeability
Please respond with reported Papp for every item in the list.
Unit ×10⁻⁶ cm/s implied. Number only.

Data request, read-out Papp, for N#Cc1ccc(NC(=O)Nc2ccc(Cc3ccc(NC(=O)Nc4ccc(C#N)cc4)cc3)cc2)cc1
1.52

Data request, read-out Papp, for O=C(Nc1ccc(Oc2ncnc3cc(Cl)ccc23)nc1)Nc1cccc(C(F)(F)F)c1
66.2

Data request, read-out Papp, for Cc1cccc(NC(=O)Nc2ccc(Cc3ccc(NC(=O)Nc4cccc(C)c4)cc3)cc2)c1
35.4

Data request, read-out Papp, for COc1ccc(NC(=O)Nc2ccc(Cc3ccc(NC(=O)Nc4ccc(OC)cc4)cc3)cc2)cc1
35.3

----------
- measurement_target: SUMO-activating enzyme (Homo sapiens, UniProt Q9UBT2)
- measurement_protocol: Inhibition of SUMO E1 (unknown origin) assessed as SUMO E1-SUMO thioester bond formation
- Format: protein-complex assay
value_type: pIC50
// returns pIC50 (minus log10 of molar concentration), number only

Report pIC50 for N#Cc1ccc(NC(=O)Nc2ccc(Cc3ccc(NC(=O)Nc4ccc(C#N)cc4)cc3)cc2)cc1 tested on SUMO-activating enzyme (Homo sapiens, UniProt Q9UBT2).
4.95

Report pIC50 for COc1ccc(NC(=O)Nc2ccc(Cc3ccc(NC(=O)Nc4ccc(OC)cc4)cc3)cc2)cc1 tested on SUMO-activating enzyme (Homo sapiens, UniProt Q9UBT2).
4.93

Report pIC50 for Cc1cccc(NC(=O)Nc2ccc(Cc3ccc(NC(=O)Nc4cccc(C)c4)cc3)cc2)c1 tested on SUMO-activating enzyme (Homo sapiens, UniProt Q9UBT2).
4.84
